These entries and their values trace back to PubChem BioAssay.

# experiment: small-molecule microarray binders of probe aShh, primary screen, biochemical, biotinylated probe, 635/667 nm fluorescence (AID 1114);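 note: probe is biotin-labelled aShh protein from a stem cell growth factor screen; measures binding of labelled protein to compounds printed on the slide; score merges feature fluorescence at 667 nm with signal-to-noise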
# assay setup: higher = more signal
Measured composite z-score values are reported for all entries that follow.
Simply state the number, no unit and no words.

molecule	endpoint value
CO[C@@H]1COC(=O)CC=C[C@@H](C)[C@H](OC)COC(=O)[C@@H](C)COC(=O)CC=C[C@H]1C	-0.0553
CC(C)=CCCC(C)=CCON=C1C[C@@H](O)[C@@H](O)[C@@H]2[C@@H]3C(=O)N(c4ccc(F)cc4F)C(=O)[C@@H]3CC[C@@H]12	-0.0553
COc1ccc(COC(=O)NN=C2C[C@@H](O)[C@@H](O)[C@@H]3[C@@H]4C(=O)N(c5cccc(Oc6ccccc6)c5)C(=O)[C@@H]4CC[C@@H]23)cc1	-0.117

Okay, next one:
### Prompt Name the recorded composite z-score for CC(CCN1CCCc2nc(C)c(C)cc21)=NOC(C)CN1CCCCc2nc(C)c(C)cc21 (centres undefined) .
### Response 0.689

====

# target entity: Torsin-1A-interacting protein 2 (Homo sapiens) (UniProt Q8NFQ8)
# Sequence (Q8NFQ8 whole entry, looked up): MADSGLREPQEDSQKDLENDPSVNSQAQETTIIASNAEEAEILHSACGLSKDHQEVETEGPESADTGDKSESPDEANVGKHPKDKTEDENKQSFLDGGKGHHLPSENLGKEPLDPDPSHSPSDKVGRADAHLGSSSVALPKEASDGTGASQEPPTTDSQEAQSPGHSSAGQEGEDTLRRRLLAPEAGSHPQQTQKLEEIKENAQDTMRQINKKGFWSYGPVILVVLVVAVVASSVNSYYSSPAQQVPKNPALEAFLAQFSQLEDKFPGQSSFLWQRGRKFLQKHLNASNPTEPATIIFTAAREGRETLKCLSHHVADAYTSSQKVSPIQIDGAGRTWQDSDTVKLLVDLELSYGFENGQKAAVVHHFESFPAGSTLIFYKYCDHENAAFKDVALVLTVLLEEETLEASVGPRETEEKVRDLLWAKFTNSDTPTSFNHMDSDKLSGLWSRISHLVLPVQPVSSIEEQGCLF
# experiment: LULL1 binders on small-molecule microarray, primary screen, cell lysate, human LULL1 lysate, 635/667 nm fluorescence (AID 1092);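 note: probe is lysate of COS7 cells overexpressing human LULL1; score merges per-feature 667 nm fluorescence with signal-to-noise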
# assay setup: hLULL1 lysate binding, 635 nm fluorescence, higher = more signal
composite z-score values by entry
Reply with just the number.

### Prompt Look up composite z-score for this molecule: COc1ccc(O[C@H]2C=C[C@@H](c3ccccc3)O[C@@H]2CON=C(C)CCN2CCc3nc(-c4ccccc4)c(-c4ccccc4)cc3C2)cc1
### Response 0.607

### Prompt If you can, please state the reported composite z-score value of O=C1[C@H]2[C@H]3[C@H](O)[C@H](O)CC(=NO[C@@H]4O[C@H](CO)[C@@H](O)[C@H](O)[C@H]4O)[C@H]3CC[C@H]2C(=O)N1c1cccc(Oc2ccccc2)c1 .
### Response 0.543

### Prompt Which composite z-score is listed for CC(C)(C)N1C(=O)[C@H]2[C@H]3[C@H](O)[C@H](O)CC(=NO[C@@H]4O[C@H](CO)[C@@H](O)[C@H](O)[C@H]4O)[C@H]3CC[C@H]2C1=O ?
### Response 0.959

====

# experiment: splicing luciferase reporter signal modulators, primary screen, spliceosome inhibition project, cell-based, HEK293, splice +/- reporter (AID 1101);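 note: HEK293 cells carrying a splicing-competent luciferase reporter gene; test concentration not given here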
# assay setup: luminescence, 24 h, called active from +8 up or from −8 down
Calls of active or inactive are those of the source.
Respond only with the outcome that fits, drawn from active, inactive

### Prompt Name the outcome recorded for C#CCCCON=C1[C@H]2CCn3c(=O)n(-c4ccccc4)c(=O)n3[C@H]2[C@H](O)[C@@H]2O[C@H]12 in the assay.
### Response inactive

### Prompt Please state the recorded outcome for this compound: COC(=O)CC=C[C@@H](C)[C@@H](C=NO[C@H](C)c1cn([C@H](CO)Cc2ccccc2)nn1)NS(=O)(=O)c1ccc(C)cc1
### Response inactive

### Prompt Which result was noted for this compound in the test: CC(C)=CCCC(C)=CCON=C1C[C@@H](O)[C@@H](O)[C@@H]2[C@@H]3C(=O)N(Cc4ccccc4)C(=O)[C@@H]3CC[C@@H]12
### Response inactive

### Prompt How did this test come out for CCN1C(=O)[C@H]2[C@H]3[C@H](O)[C@H](O)CC(=NO[C@@H](C)c4cn([C@H](CO)Cc5ccccc5)nn4)[C@@H]3CC[C@H]2C1=O ?
### Response inactive

====

Below, each entry is listed alongside its reported composite z-score.
# Tested on: Human papillomavirus type 1a E7 protein (residues 1-88)
# experiment: HPV1a E7 small-molecule binders, primary screen, biochemical, small-molecule microarray, residues 1-88, 635 nm (AID 1129)
# assay setup: small-molecule microarray binding, fluorescence 635 nm; higher = more signal
Field format: numeric only.

// known answers, use as guide
molecule	target entity	measurement type	endpoint value
COc1ccc(O[C@H]2C=C[C@@H](c3ccccc3)O[C@@H]2CON=CC[C@@H]2C=C[C@H](OC(C)=O)[C@@H](COC(C)=O)O2)cc1	Human papillomavirus type 1a E7 protein (residues 1-88)	composite z-score	-0.311
CCC=CCCC(OC(=O)c1ccc(Br)cc1)C1=CCCCC1=O (stereo not drawn)	Human papillomavirus type 1a E7 protein (residues 1-88)	composite z-score	1.17
Cn1c(=O)n2n(c1=O)[C@H]1[C@H](O)[C@@H]3O[C@@H]3C(=NOCc3ccccc3)[C@H]1CC2	Human papillomavirus type 1a E7 protein (residues 1-88)	composite z-score	-0.624
COC(=O)CC=C[C@@H](C)[C@@H](C=NO[C@@H](C)c1cn([C@H](CO)Cc2ccccc2)nn1)OC	Human papillomavirus type 1a E7 protein (residues 1-88)	composite z-score	0.168
CCOC(=O)[C@H](CC(C)C)NC(=O)CCC1CC(OC(=O)NCCc2ccc(F)cc2)CC2(CCCC(COC(=O)NCCc3ccccc3OC)O2)O1 (stereo partly drawn)	Human papillomavirus type 1a E7 protein (residues 1-88)	composite z-score	0.903
CC(C)=NOC[C@@H](C)[C@H](OCc1ccccc1)C(C)C	Human papillomavirus type 1a E7 protein (residues 1-88)	composite z-score	-1.56

### Prompt // returns reported composite z-score for input CO[C@H]1COC(=O)CC=C[C@H](C)[C@@H](OC)COC(=O)[C@@H](C)NC(=O)CC=C[C@@H]1C
### Response -1.32

### Prompt Dear colleague, I am looking for the recorded composite z-score of the following molecule: COC(=O)[C@H](C)NC(=O)CCC1CC(OC(=O)NCCc2ccc(F)cc2)CC2(CCCC(COC(=O)NCc3cccc(C(F)(F)F)c3)O2)O1 (stereo partly drawn)
### Response 0.637

====

Here, each record is paired with measured composite z-score data.
# System: Fibrinogen (Alexa647-labelled)
# experiment: fibrinogen binders on compound microarrays, profiling panel, artefact control for SMM control-protein annotation, biochemical, small-molecule microarray, 635/667 nm fluorescence (AID 1131);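 note: z-score merges 667 nm fluorescence with per-spot signal-to-noise over triplicate slides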
# assay setup: fibrinogen-A647 binding fluorescence, higher = more signal

Record excerpt, results attached:
compound	endpoint value
CCOC(=O)NN=C1C[C@@H](O)[C@@H](O)[C@@H]2[C@@H]3C(=O)N(c4cccc(Oc5ccccc5)c4)C(=O)[C@@H]3CC[C@@H]12	0.681
O=C1[C@H]2[C@H]3[C@H](O)[C@H](O)CC(=NOCc4ccccc4)[C@@H]3CC[C@H]2C(=O)N1c1ccc(F)cc1F	0.416

### Prompt Requested field: composite z-score. Item: CC(CCN1CCCCc2nc(C)c(C)cc21)=NO[C@H](C)c1cn([C@H](CO)Cc2ccccc2)nn1
### Response 0.339

### Prompt Report composite z-score for COC(=O)[C@H](C)NC(=O)CCC1CC(OC(=O)NCCc2ccc(F)cc2)CC2(CCCC(COC(=O)NCCC(C)C)O2)O1 (some centres undefined) please.
### Response 0.939

### Prompt Please give the measured composite z-score for this compound: CC(C)[C@@H](OCc1ccccc1)[C@H](C)C=NOC[C@@H](O)COCc1ccco1
### Response -1.75

====

# Test system: Chordin-like protein 2 (CHRDL2)
# experiment: CHRDL2 small-molecule binders, primary screen, biochemical, small-molecule microarray, 635 nm fluorescence (AID 1126);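 note: printed compound slides probed with Chrdl2 protein at 4 µg/mL for 1 h at 4 C; score merges 667 nm emission intensity with signal to noise over three replicate slides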
# assay setup: small-molecule microarray binding, fluorescence 635 nm; higher = more signal
Would you mind sorting the entries by composite z-score according to these classes? 0: < 0.2; 1: ≥ 0.2 and < 0.7; 2: ≥ 0.7

These recorded examples may help you get a feel for the data.
compound	group
COC(=O)CC=C[C@@H](C)[C@@H]1C=C[C@H](O)[C@@H](CO)O1	2
CCOC(=O)[C@H](Cc1ccccc1)NC(=O)CCC1CC(OC(=O)NCc2ccc3c(c2)OCO3)CC2(CCCC(COC(=O)NCCC(C)C)O2)O1 (stereo partly drawn)	1
O=C1CCCC=C1C(O)CCOC(c1ccccc1)(c1ccccc1)c1ccccc1 (stereo not drawn)	0
CC(C)=CCCC(C)=CCON=C1C[C@@H](O)[C@@H](O)[C@@H]2[C@@H]3C(=O)N(Cc4ccccc4)C(=O)[C@@H]3CC[C@H]12	2
CC(CCN1CCCc2nc(C)c(C)cc21)=NOC(C)CN1CCCCc2nc(C)c(C)cc21 (stereo not drawn)	2

### Prompt Category lookup for the compound COc1ccc(O[C@@H]2[C@H](O)CO[C@@H]2C=Cc2ccccc2)cc1
### Response 1

### Prompt // bin(item) where item = CC(C)(C)N1C(=O)[C@H]2[C@H]3[C@H](O)C=CC(=O)[C@@H]3CC[C@H]2C1=O
### Response 1

### Prompt # bin lookup: classify COc1cccc([C@@H]2Oc3ccc(OC)cc3C(=O)[C@H]2O)c1 by its composite z-score
### Response 1

====

# experiment: basal MM1S mitochondrial membrane potential changes, profiling panel, cell-based, JC-1 fluorescence, 24 h, 100 nL compound (AID 1170); note: test concentration not given here
# assay setup: higher = more signal
Outcome label depends on z-score relative to -0.1: at/above gives 1 (yes), below gives 0 (no).

molecule	group
CO[C@H]1COC(=O)CC=C[C@@H](C)[C@H](NS(=O)(=O)c2ccc(C)cc2)COC(=O)CCC[C@@H]1C	0 (no)
CCN1C(=O)[C@H]2[C@H]3[C@H](O)[C@H](O)CC(=NOC[C@H]4O[C@H](c5ccccc5)C=C[C@@H]4Oc4ccc(OC)cc4)[C@@H]3CC[C@H]2C1=O	0 (no)
CO[C@H]1COC(=O)CCC[C@@H](C)[C@H](OC)COC(=O)[C@@H](C)NC(=O)CC=C[C@@H]1C	0 (no)
O=C(C=Cc1ccc2c(c1)OCO2)c1ccc(F)cc1	0 (no)
CSCC[C@@H]1NC(=O)CC=C[C@@H](C)COC(=O)[C@@H](C)COC1=O	0 (no)

### Prompt Confirm if z-score reported for the molecule CCOC(=O)[C@H](Cc1ccccc1)NC(=O)CCC1CC(OC(=O)NCCc2ccc(F)cc2)CC2(CCCC(COC(=O)NCCCN3CCCC3=O)O2)O1 (some centres undefined) is -0.1 or above.
### Response 0 (no)

### Prompt Form field: z-score at least -0.1? Entry: CCOC(=O)[C@H](Cc1ccccc1)NC(=O)CCC1CC(OC(=O)NCc2ccc3c(c2)OCO3)CC2(CCCC(COC(=O)NCCc3ccccc3OC)O2)O1 (some centres undefined)
### Response 1 (yes)

### Prompt Please indicate if the recorded z-score for Cn1c(=O)n2n(c1=O)[C@H]1[C@H](O)[C@@H]3O[C@@H]3C(=NOCc3ccccc3)[C@H]1CC2 meets or exceeds -0.1.
### Response 0 (no)

### Prompt hey, is z-score for this one >= -0.1? COC(=O)[C@H](C)NC(=O)CCC1CC(OC(=O)NCc2cccc3ccccc23)CC2(CCCC(COC(=O)NCC(c3ccccc3)c3ccccc3)O2)O1 (some centres undefined)
### Response 0 (no)

### Prompt Confirm if z-score reported for the molecule O=C1[C@H]2[C@H]3[C@H](O)[C@H](O)CC(=NOC[C@@H](O)COCc4ccco4)[C@H]3CC[C@H]2C(=O)N1Cc1ccccc1 is -0.1 or above.
### Response 0 (no)

### Prompt Is reported z-score greater than or equal to -0.1 here: CO[C@H]1COC(=O)CC=C[C@H](C)COC(=O)[C@@H](C)NC(=O)CC=C[C@@H]1C
### Response 0 (no)

### Prompt I'd appreciate it if you could say whether CC(C)CON=C1[C@H]2CCn3c(=O)n(Cc4cc5c(cc4Cl)OCO5)c(=O)n3[C@H]2[C@H](O)[C@@H]2O[C@H]12 has z-score at least equal to -0.1.
### Response 0 (no)

### Prompt Could you verify whether the entry O=c1n(Cc2cc3c(cc2Cl)OCO3)c(=O)n2n1CC[C@@H]1C(=NOC[C@@H](O)COCc3ccco3)[C@H]3O[C@H]3[C@@H](O)[C@@H]12 shows z-score of no less than -0.1?
### Response 0 (no)

### Prompt Reported z-score reaches at least -0.1 for C#CCCCON=C1[C@H]2CCn3c(=O)n(C)c(=O)n3[C@H]2[C@H](O)[C@@H]2O[C@H]12 ?
### Response 1 (yes)

### Prompt Does z-score meet or surpass -0.1 for COc1ccc(COC(=O)NN=C2C[C@@H](O)[C@@H](O)[C@@H]3[C@@H]4C(=O)N(C5CCCCC5)C(=O)[C@@H]4CC[C@H]23)cc1 ?
### Response 0 (no)

### Prompt Record COC(=O)[C@H](C)NC(=O)CCC1CC(OC(=O)NCc2ccc3c(c2)OCO3)CC2(CCCC(COC(=O)NCC3CCCCC3)O2)O1 (some centres undefined) ; criterion: z-score no lower than -0.1. Met?
### Response 1 (yes)
